Catalogue of molecules with associated Ki
biological target: Recombinant human M3 receptor (Homo sapiens); construct: expressed in transfected cells; host or cells: CHO-K1 cells (membranes); assay: biochemical; format: binding; details: SPA format; read-out: M3 Ki (SPA format)
Where a name gives a salt, the structure may show the parent alone.

{"Molecule": "OC(c1ccccc1)(c1cc(C[N+]23CCC(CC2)[C@@H](OCc2ccccc2)C3)on1)C1CCCCC1 (single isomer, unassigned) [Example 31, formate]", "Ki": "< 5 nM"}
{"Molecule": "C=CCO[C@H]1C[N+]2(Cc3cnc([C@](O)(c4ccccc4)C4CCCCC4)o3)CCC1CC2 [Example 51, formate]", "Ki": "< 5 nM"}
{"Molecule": "O=C(N[C@H]1C[N+]2(Cc3cnc([C@](O)(c4ccccc4)C4CCCCC4)o3)CCC1CC2)c1ccccc1 [Example 13, formate]", "Ki": "> 20 nM"}
{"Molecule": "O[C@](c1ccccc1)(c1nnc(C[N+]23CCC(CC2)[C@@H](Oc2cccc(F)c2)C3)o1)C1CCCCC1 [Example 134]", "Ki": "< 5 nM"}
{"Molecule": "O[C@](c1ccccc1)(c1ncc(C[N+]23CCC(CC2)[C@@H](CSc2ccc(F)cc2)C3)o1)C1CCCCC1 [Example 106]", "Ki": "< 5 nM"}
{"Molecule": "O[C@](c1ccccc1)(c1ncc(C[N+]23CCC(COCc4ccccc4)(CC2)CC3)o1)C1CCCCC1 [Example 47]", "Ki": "> 20 nM"}
{"Molecule": "OC(c1ccccc1)(c1ccccc1)c1ncc(C[N+]23CCC(CC2)[C@@H](Oc2ccsc2)C3)o1 [Example 114]", "Ki": "5 to 20 nM"}

----------
biological target: Recombinant human M3 receptor (Homo sapiens, UniProt P20309); construct: expressed in transfected cells; host or cells: CHO-K1 cells (membranes); assay: biochemical; assay type: binding; conditions: M3 Ki (SPA format, SPA format)
Sequence (P20309 whole entry): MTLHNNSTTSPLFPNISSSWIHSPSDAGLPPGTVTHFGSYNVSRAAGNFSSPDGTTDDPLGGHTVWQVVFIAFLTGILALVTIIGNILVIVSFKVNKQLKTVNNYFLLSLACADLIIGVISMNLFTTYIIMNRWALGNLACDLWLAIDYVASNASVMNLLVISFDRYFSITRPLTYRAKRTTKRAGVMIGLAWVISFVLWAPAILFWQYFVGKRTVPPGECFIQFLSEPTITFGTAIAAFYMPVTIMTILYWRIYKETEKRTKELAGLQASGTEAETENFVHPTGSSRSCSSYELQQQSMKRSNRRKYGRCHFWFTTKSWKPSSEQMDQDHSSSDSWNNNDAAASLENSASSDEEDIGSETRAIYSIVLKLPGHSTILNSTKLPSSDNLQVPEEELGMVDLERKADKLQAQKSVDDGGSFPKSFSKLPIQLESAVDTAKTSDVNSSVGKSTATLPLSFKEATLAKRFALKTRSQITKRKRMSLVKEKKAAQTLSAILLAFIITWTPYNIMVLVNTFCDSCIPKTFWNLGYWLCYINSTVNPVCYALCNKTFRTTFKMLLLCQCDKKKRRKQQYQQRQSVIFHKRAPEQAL
pKi: −log10 of the molar value. Counter-ions that a name gives are not always drawn.
Catalogue of molecules with associated pKi
Quantity name: pKi

{"Molecule": "O=C(O[C@H]1C[N+]2(Cc3cnc([C@](O)(c4ccccc4)C4CCCCC4)o3)CCC1CC2)c1ccccc1 [Example 14, formate]", "Assay target": "Recombinant human M3 receptor (Homo sapiens, UniProt P20309)", "Quantity name": "pKi", "Observed measurement": "7.70 to 8.30"}
{"Molecule": "O=C(O[C@@H]1C[N+]2(Cc3cnc([C@](O)(c4ccccc4)C4CCCCC4)o3)CCC1CC2)c1ccccc1 [Example 10, formate]", "Assay target": "Recombinant human M3 receptor (Homo sapiens, UniProt P20309)", "Quantity name": "pKi", "Observed measurement": "7.70 to 8.30"}

----------
Catalogue of compounds with associated Ki
biological target: Recombinant human M3 receptor (Homo sapiens, UniProt P20309); construct: expressed in transfected cells; host or cells: CHO-K1 cells (membranes); test: biochemical; assay type: binding; details: SPA format; read-out: M3 Ki (SPA format)
Counter-ions that a name gives are not always drawn.
Quantity name: Ki

{"Compound": "O[C@](c1ccccc1)(c1ncc(C[N+]23CCC(CC2)[C@@H](OCc2ccc(Cl)c(Cl)c2)C3)o1)C1CCCC1 [Example 45, formate]", "Assay target": "Recombinant human M3 receptor (Homo sapiens, UniProt P20309)", "Quantity name": "Ki", "Observed measurement": "< 5 nM"}
{"Compound": "OC(c1ccccc1)(c1ccccc1)c1ncc(C[N+]23CCC(CC2)[C@@H](Oc2cccs2)C3)o1", "Assay target": "Recombinant human M3 receptor (Homo sapiens, UniProt P20309)", "Quantity name": "Ki", "Observed measurement": "5 to 20 nM"}
{"Compound": "O[C@](c1ccccc1)(c1ncc(C[N+]23CCC(CC2)[C@@H](OCc2ccc(F)cc2)C3)o1)C1CCCCC1", "Assay target": "Recombinant human M3 receptor (Homo sapiens, UniProt P20309)", "Quantity name": "Ki", "Observed measurement": "< 5 nM"}
{"Compound": "O[C@](c1ccccc1)(c1ncc(C[N+]23CCC(CC2)C(COc2cccc(F)c2)C3)o1)C1CCCCC1 (single isomer, unassigned) [Example 81]", "Assay target": "Recombinant human M3 receptor (Homo sapiens, UniProt P20309)", "Quantity name": "Ki", "Observed measurement": "< 5 nM"}
{"Compound": "OC(c1ccccc1)(c1ccccc1)c1noc(C[N+]23CCC(CC2)[C@@H](SC2CCCCC2)C3)n1", "Assay target": "Recombinant human M3 receptor (Homo sapiens, UniProt P20309)", "Quantity name": "Ki", "Observed measurement": "< 5 nM"}
{"Compound": "OC(c1ccccc1)(c1ccccc1)c1ncc(C[N+]23CCC(CC2)C(Oc2ccccc2)C3)o1 (single isomer, unassigned; enantiomer 2) [Example 2]", "Assay target": "Recombinant human M3 receptor (Homo sapiens, UniProt P20309)", "Quantity name": "Ki", "Observed measurement": "< 5 nM"}
{"Compound": "OC(c1ccccc1)(c1ncc(C[N+]23CCC(CC2)[C@@H](OCc2ccccc2)C3)s1)C1CCCCC1 (stereo partly shown)", "Assay target": "Recombinant human M3 receptor (Homo sapiens, UniProt P20309)", "Quantity name": "Ki", "Observed measurement": "< 5 nM"}
{"Compound": "OC(c1ccccc1)(c1ccccc1)c1noc(C[N+]23CCC(CC2)[C@@H](Oc2cccc(Cl)c2)C3)n1", "Assay target": "Recombinant human M3 receptor (Homo sapiens, UniProt P20309)", "Quantity name": "Ki", "Observed measurement": "< 5 nM"}
{"Compound": "OC(c1ccccc1)(c1noc(C[N+]23CCC(CC2)[C@@H](SCc2ccccc2)C3)n1)C1CCCCC1 (single isomer, unassigned)", "Assay target": "Recombinant human M3 receptor (Homo sapiens, UniProt P20309)", "Quantity name": "Ki", "Observed measurement": "< 5 nM"}
{"Compound": "OC(c1ccccc1)(c1ncc(C[N+]23CCC(CC2)C(CSc2ccccc2)C3)o1)C1CCC1 (single isomer, unassigned)", "Assay target": "Recombinant human M3 receptor (Homo sapiens, UniProt P20309)", "Quantity name": "Ki", "Observed measurement": "< 5 nM"}
{"Compound": "O[C@](c1ccccc1)(c1ncc(C[N+]23CCC(CC2)C(COc2ccc(F)cc2)C3)o1)C1CCCCC1 (single isomer, unassigned) [Example 87]", "Assay target": "Recombinant human M3 receptor (Homo sapiens, UniProt P20309)", "Quantity name": "Ki", "Observed measurement": "< 5 nM"}
{"Compound": "OC(c1ccccc1)(c1ccccc1)c1ncc(C[N+]23CCC(CC2)C(COc2cccc(F)c2)C3)o1 (single isomer, unassigned) [Example 83]", "Assay target": "Recombinant human M3 receptor (Homo sapiens, UniProt P20309)", "Quantity name": "Ki", "Observed measurement": "5 to 20 nM"}
{"Compound": "OC(c1ccccc1)(c1ccccc1)c1noc(C[N+]23CCC(CC2)[C@@H](Oc2ccsc2)C3)n1", "Assay target": "Recombinant human M3 receptor (Homo sapiens, UniProt P20309)", "Quantity name": "Ki", "Observed measurement": "< 5 nM"}
{"Compound": "OC(c1ccccc1)(c1ccccc1)c1ncc(C[N+]23CCC(CC2)[C@@H](Oc2cccc(Cl)c2Cl)C3)o1", "Assay target": "Recombinant human M3 receptor (Homo sapiens, UniProt P20309)", "Quantity name": "Ki", "Observed measurement": "> 20 nM"}
{"Compound": "O[C@@](c1ccccc1)(c1ncc(C[N+]23CCC(CC2)CC3)o1)C1CCCCC1", "Assay target": "Recombinant human M3 receptor (Homo sapiens, UniProt P20309)", "Quantity name": "Ki", "Observed measurement": "< 5 nM"}
{"Compound": "O[C@](c1ccccc1)(c1ncc(C[N+]23CCC(CC2)C(COc2cccc(F)c2)C3)o1)C1CCCCC1 (single isomer, unassigned) [Example 85]", "Assay target": "Recombinant human M3 receptor (Homo sapiens, UniProt P20309)", "Quantity name": "Ki", "Observed measurement": "< 5 nM"}
{"Compound": "O[C@](c1ccccc1)(c1ncc(C[N+]23CCC(CC2)[C@@H](COc2ccccc2)C3)o1)C1CCCCC1", "Assay target": "Recombinant human M3 receptor (Homo sapiens, UniProt P20309)", "Quantity name": "Ki", "Observed measurement": "< 5 nM"}
{"Compound": "OC(c1ccccc1)(c1cc(C[N+]23CCC(CC2)[C@@H](Oc2ccc(F)cc2)C3)on1)C1CCCCC1 (single isomer, unassigned)", "Assay target": "Recombinant human M3 receptor (Homo sapiens, UniProt P20309)", "Quantity name": "Ki", "Observed measurement": "< 5 nM"}
{"Compound": "C=CCOCC1C[N+]2(Cc3cnc([C@](O)(c4ccccc4)C4CCCCC4)o3)CCC1CC2 (single isomer, unassigned) [Example 90, formate]", "Assay target": "Recombinant human M3 receptor (Homo sapiens, UniProt P20309)", "Quantity name": "Ki", "Observed measurement": "5 to 20 nM"}
